Where do the numbers come from? From patent US11072632B2.

# target_under_test: 17β-HSD1 (Homo sapiens, UniProt P14061)
# Construct: endogenous in cells; host or cells: T-47D
# Sequence (P14061 whole entry): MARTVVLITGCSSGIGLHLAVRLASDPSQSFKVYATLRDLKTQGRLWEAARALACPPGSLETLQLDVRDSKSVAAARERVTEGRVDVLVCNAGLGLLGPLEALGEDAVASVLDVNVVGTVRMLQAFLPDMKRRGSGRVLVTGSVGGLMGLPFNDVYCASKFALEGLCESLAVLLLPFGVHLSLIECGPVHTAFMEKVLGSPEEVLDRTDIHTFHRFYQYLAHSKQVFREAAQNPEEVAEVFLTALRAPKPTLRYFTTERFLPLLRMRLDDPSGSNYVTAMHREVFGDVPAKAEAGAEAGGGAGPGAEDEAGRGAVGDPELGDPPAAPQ
# measurement_description: Inhibition of 17β-HSD1 in T-47D intact cells (E1 into E2)
# Type: cell-based
# condition_info: T47D; Table 2 (17β-HSD1); [14C]-E1 60 nM, T-47D intact cells, 1 μM; read-out: Inhibition (1 μM)
outcome_measure: inhibition at 1 µM (%)
One number for each entry, in %.

| compound | reported |
| --- | --- |
| CN(C)Cc1ccc2c(c1)CC[C@@H]1[C@@H]2CC[C@]2(C)[C@@H](O)[C@@H](Cc3cccc(C(N)=O)c3)C[C@@H]12 [Compound 40a] | 49 |
| C[C@]12CC[C@@H]3c4ccc(CCO)cc4CC[C@H]3[C@@H]1CC(Cc1cccc(C(N)=O)c1)[C@@H]2O (some centres unmarked) [IV] | 57 |
| C[C@]12CC[C@@H]3c4ccc(CN5CCCC5)cc4CC[C@H]3[C@@H]1C[C@H](Cc1cccc(C(N)=O)c1)[C@@H]2O [Compound 40c] | 28 |
| C[C@]12CC[C@@H]3c4ccc(C(=O)O)cc4CC[C@H]3[C@@H]1C[C@H](Cc1cccc(C(N)=O)c1)[C@@H]2O [Compound 36] | 8 |
| C[C@]12CC[C@@H]3c4ccc(CO)cc4CC[C@H]3[C@@H]1C[C@H](Cc1cccc(C(N)=O)c1)[C@@H]2O [II] | 73 |
| C[C@]12CC[C@@H]3c4ccc(CC(=O)O)cc4CC[C@H]3[C@@H]1C[C@H](Cc1cccc(C(N)=O)c1)[C@@H]2O [Compound 31] | 29 |
| C[C@]12CC[C@@H]3c4ccc(C(N)=O)cc4CC[C@H]3[C@@H]1C[C@H](Cc1cccc(C(N)=O)c1)[C@@H]2O [Compound 61] | 23 |

// next entry
// fetch 17β-HSD1 (Homo sapiens, UniProt P14061) inhibition at 1 µM for C[C@]12CC[C@@H]3c4ccc(OCCBr)cc4CC[C@H]3[C@@H]1C[C@H](Cc1cccc(C(N)=O)c1)[C@@H]2O [Compound 15]
81

====

# target_under_test: 17β-HSD3 (Homo sapiens, UniProt P37058)
# Construct: expressed in transfected cells; host or cells: HEK-293 (homogenate)
# measurement_description: Inhibition of 17β-HSD3 in homogenated HEK-293 cells
# Format: biochemical
# condition_info: read-out: Homo (%) (1.0 μM), Table 4; 1.0 μM
outcome_measure: inhibition at 1 µM (%)
One number for each entry, in %.

// known answers, use as guide
| compound | reported |
| --- | --- |
| CCCN(CCC)CCN1C[C@]2(CC[C@@]3(C)[C@@H](CC[C@@H]4[C@@H]3CC[C@]3(C)C(=O)CC[C@@H]43)C2)OC1=O [Compound 23f] | 62 |
| CCCN(CCN1C[C@]2(CC[C@@]3(C)[C@@H](CC[C@@H]4[C@@H]3CC[C@]3(C)C(=O)CC[C@@H]43)C2)OC1=O)C(=O)CC [Compound 23g] | 80 |

// next entry
What does the record list as inhibition at 1 µM for Cc1cccc(OCCN2C[C@]3(CC[C@@]4(C)[C@@H](CC[C@@H]5[C@@H]4CC[C@]4(C)C(=O)CC[C@@H]54)C3)OC2=O)c1 [Compound 23a] ?
95

====

Could you please report measured Intact cells (%) (0.1 μM) for the items listed next?
# target_under_test: 17β-HSD3 (Homo sapiens, UniProt P37058)
# Construct: expressed in transfected cells; host or cells: HEK-293 (homogenate)
# measurement_description: Inhibition of 17β-HSD3 in intact HEK-293 cells
# Type: cell-based
# condition_info: Table 3; 0.1 μM
Give bare numbers, in %.

// known answers, use as guide
| molecule | target_under_test | Intact cells (%) (0.1 μM) |
| --- | --- | --- |
| CC1CN(S(=O)(=O)c2ccccc2C(F)(F)F)C(C)CN1CC1(O)CCC2(C)C(CCC3C4CCC(=O)C4(C)CCC32)C1 (centres unmarked) [Compound 15b] | 17β-HSD3 (Homo sapiens, UniProt P37058) | 84 |
| CC1CN(C[C@@]2(O)CC[C@@]3(C)[C@@H](CC[C@@H]4[C@@H]3CC[C@]3(C)C(=O)CC[C@@H]43)C2)C(C)CN1Cc1ccc(C(F)(F)F)cc1 (some centres unmarked) [Compound 11c] | 17β-HSD3 (Homo sapiens, UniProt P37058) | 36 |
| C[C@]12CC[C@](O)(CN3CCN(Cc4cc(C(F)(F)F)ccc4C(F)(F)F)CC3)C[C@@H]1CC[C@@H]1[C@@H]2CC[C@]2(C)C(=O)CC[C@@H]12 [Compound 10h] | 17β-HSD3 (Homo sapiens, UniProt P37058) | 12 |
| CC1CN(CC2(O)CCC3(C)C(CCC4C5CCC(=O)C5(C)CCC43)C2)C(C)CN1Cc1ccc(C(F)(F)F)cc1C(F)(F)F (centres unmarked) [Compound 11i] | 17β-HSD3 (Homo sapiens, UniProt P37058) | 21 |
| CC1CN(C[C@@]2(O)CC[C@@]3(C)[C@@H](CC[C@@H]4[C@@H]3CC[C@]3(C)C(=O)CC[C@@H]43)C2)C(C)CN1Cc1cc(C(F)(F)F)cc(C(F)(F)F)c1 (some centres unmarked) [Compound 11j] | 17β-HSD3 (Homo sapiens, UniProt P37058) | 16 |
| CC1CN(C[C@@]2(O)CC[C@@]3(C)[C@@H](CC[C@@H]4[C@@H]3CC[C@]3(C)C(=O)CC[C@@H]43)C2)C(C)CN1Cc1cc(C(F)(F)F)ccc1C(F)(F)F (some centres unmarked) [Compound 11h] | 17β-HSD3 (Homo sapiens, UniProt P37058) | 23 |

List the reported Intact cells (%) (0.1 μM) of each molecule below.
1. CC1CN(C(=O)C2CCCCC2)C(C)CN1C[C@@]1(O)CC[C@@]2(C)[C@@H](CC[C@@H]3[C@@H]2CC[C@]2(C)C(=O)CC[C@@H]32)C1 (some centres unmarked) [Compound 13b]
2. CC1CN(C(=O)c2ccc(C(F)(F)F)cc2)C(C)CN1C[C@@]1(O)CC[C@@]2(C)[C@@H](CC[C@@H]3[C@@H]2CC[C@]2(C)C(=O)CC[C@@H]32)C1 (some centres unmarked) [Compound 13d]
3. CC1CN(S(=O)(=O)c2ccccc2C(F)(F)F)C(C)CN1CC1(O)CCC2(C)C(CCC3C4CCC(=O)C4(C)CCC32)C1 (centres unmarked) [Compound 15c]
4. CC1CN(CC2(O)CCC3(C)C(CCC4C5CCC(=O)C5(C)CCC43)C2)C(C)CN1Cc1ccccc1C(F)(F)F (centres unmarked) [Compound 11b]
5. C[C@]12CC[C@](O)(CN3CCN(Cc4ccc(C(F)(F)F)cc4C(F)(F)F)CC3)C[C@@H]1CC[C@@H]1[C@@H]2CC[C@]2(C)C(=O)CC[C@@H]12 [Compound 10i]
6. CC1CN(C(=O)c2ccccc2)C(C)CN1C[C@@]1(O)CC[C@@]2(C)[C@@H](CC[C@@H]3[C@@H]2CC[C@]2(C)C(=O)CC[C@@H]32)C1 (some centres unmarked) [Compound 13a]

1: 77; 2: 61; 3: 47; 4: 36; 5: 16; 6: 78

List the reported Intact cells (%) (0.1 μM) of each molecule below.
1. CC1CN(C(=O)c2cccc(C(F)(F)F)c2)C(C)CN1CC1(O)CCC2(C)C(CCC3C4CCC(=O)C4(C)CCC32)C1 (centres unmarked) [Compound 13c]
2. CC1CN(S(=O)(=O)c2cccc(C(F)(F)F)c2)C(C)CN1C[C@@]1(O)CC[C@@]2(C)[C@@H](CC[C@@H]3[C@@H]2CC[C@]2(C)C(=O)CC[C@@H]32)C1 (some centres unmarked) [Compound 15a]

70
77

====

# target_under_test: 17β-HSD3 (Homo sapiens)
# Construct: expressed in transfected cells; host or cells: HEK-293 (homogenate)
# Sequence (P37058 1-310): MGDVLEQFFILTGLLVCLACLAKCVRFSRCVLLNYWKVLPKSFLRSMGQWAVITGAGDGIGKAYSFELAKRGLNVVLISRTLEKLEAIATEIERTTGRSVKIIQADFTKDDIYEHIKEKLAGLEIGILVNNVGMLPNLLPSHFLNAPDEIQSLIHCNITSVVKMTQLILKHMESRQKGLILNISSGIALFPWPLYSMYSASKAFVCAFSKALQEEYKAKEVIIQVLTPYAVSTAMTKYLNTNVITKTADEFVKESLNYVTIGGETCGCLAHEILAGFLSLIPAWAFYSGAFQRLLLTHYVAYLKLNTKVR
# measurement_description: Inhibition of 17β-HSD3 in homogenated HEK-293 cells
# Type: biochemical
# condition_info: read-out: Homo (%) (1.0 μM), Table 4; 1.0 μM
outcome_measure: inhibition at 1 µM (%)
Numbers only, in %.

// known answers, use as guide
| molecule | reported |
| --- | --- |
| C[C@]12CC[C@@]3(C[C@@H]1CC[C@@H]1[C@@H]2CC[C@]2(C)C(=O)CC[C@@H]12)CN(Cc1ccccc1)C(=O)O3 [Compound 17a] | 93 |
| C[C@]12CC[C@@]3(C[C@@H]1CC[C@@H]1[C@@H]2CC[C@]2(C)C(=O)CC[C@@H]12)CN(CCBr)C(=O)O3 | 93 |
| C[C@]12CC[C@@]3(C[C@@H]1CC[C@@H]1[C@@H]2CC[C@]2(C)C(=O)CC[C@@H]12)CN(C1CCCCC1)C(=O)O3 [Compound 17i] | 78 |

// next entry
What does the record list as inhibition at 1 µM for Cc1cccc(S(=O)(=O)CCN2C[C@]3(CC[C@@]4(C)[C@@H](CC[C@@H]5[C@@H]4CC[C@]4(C)C(=O)CC[C@@H]54)C3)OC2=O)c1 [Compound 23b] ?
93
